assay-remarks: Inhibition of sigma1 receptor (unknown origin)
quantity: Ki (nM)
Supply the numeric figure in nM, leaving out any unit text.

Look up Ki: O=C1COc2cc(CN3CCN(c4ccc(Cl)cc4)CC3)ccc2N1
232

Hey, just so you know, these numbers are from ChEMBL document CHEMBL4038300.
